Values from PubChem BioAssay AID248

Tested on: L1210 leukemia ip in BDF1 mice, survival T/C
test_protocol: NCI In Vivo Anticancer Drug Screen. Data for tumor model L1210 Leukemia (intraperitoneal) in B6D2F1 (BDF1) mice
test_conditions: endpoint: mean survival time; dose: 200.0 mg/kg/injection; schedule: Q01DX009 (ip); vehicle: saline; higher = longer survival
Toxic doses and inconclusive results are not listed.
# Lookup of reported T/C keyed by entry

Completed entries (count: 4):
{"molecule": "Cc1nn(C2CC(O)C(O)C(CO)O2)c(=O)[nH]c1=O (centres undefined)", "target": "L1210 leukemia ip in BDF1 mice, survival T/C", "T/C": "95 % of control"}
{"molecule": "CN(C)P1(N)=NP(N)(N(C)C)=NP(N)(N(C)C)=N1 (centres undefined)", "target": "L1210 leukemia ip in BDF1 mice, survival T/C", "T/C": "95 % of control"}
{"molecule": "COc1cc(Br)c(CCC(=O)O)cc1OC", "target": "L1210 leukemia ip in BDF1 mice, survival T/C", "T/C": "94 % of control"}
{"molecule": "O=C(Nc1cccc(F)c1)N(CCO)C1CCCCC1", "target": "L1210 leukemia ip in BDF1 mice, survival T/C", "T/C": "113 % of control"}

Request the reported T/C associated with CC(=O)Nc1ccc2c(O)cc(S(=O)(=O)O)cc2c1
100 % of control

Request the reported T/C associated with O=C(Cn1cc(F)c(=O)[nH]c1=O)c1ccco1
91 % of control

Request the reported T/C associated with CN(C)/N=C/C=C/c1ccccc1
100 % of control
